Assay: qHTS drug screen for cell cycle checkpoint inhibitors in PARPi-resistant BRCA-mutant ovarian cancer cell lines. (AID 1963452)
Details: PEO1/OlaR viability, CellTiter-Glo luminescence, 96 h; hits give low values
recorded.endpoint: Z-AUC
Reply: number alone, nothing else.

-- ask I'd like to know its Z-AUC. The compound in question is Cc1ccc(-c2nn(C(C)(C)CNC(=O)c3ccncc3)c3ncnc(N)c23)cc1
-- reply -0.525

-- ask Same again, this time with CC[C@@H]1[C@H](F)C(=O)N[C@@H]1COc1nccc2cc(C(N)=O)c(OC)cc12
-- reply -0.948

-- ask Same again, this time with COC(=O)N[C@H](C(=O)N1CCC[C@H]1c1ncc(-c2ccc(-c3ccc(-c4cnc([C@@H]5CCCN5C(=O)[C@@H](NC(=O)OC)C(C)C)[nH]4)cc3)cc2)[nH]1)C(C)C
-- reply -0.519

-- ask Same again, this time with COc1cc2c(NC3CCN(C)CC3)nc(N3CCCN(C)CC3)nc2cc1OCCCN(C)C
-- reply -0.893

-- ask Same again, this time with Cc1ccc(C(=O)OCc2ccc([C@@H](CN)C(=O)Nc3ccc4cnccc4c3)cc2)c(C)c1
-- reply -1.52

-- ask Same again, this time with O=C(NO)C1(CS(=O)(=O)c2ccc(Oc3ccc(Cl)cc3)cc2)CCOCC1
-- reply 1.18

-- ask Same again, this time with C/C(=C\c1csc(C)n1)[C@@H]1C[C@@H]2O[C@]2(C)CCC[C@H](C)[C@H](O)[C@@H](C)C(=O)C(C)(C)[C@@H](O)CC(=O)N1
-- reply -0.955

-- ask Same again, this time with NC(=O)C1=C(O)[C@@]2(O)C(=O)C3=C(O)c4c(O)cccc4C[C@H]3C[C@H]2CC1=O
-- reply -0.543

-- ask Same again, this time with N#Cc1cccnc1N1CCN(C(=O)c2cccc(Cc3n[nH]c(=O)c4ccccc34)c2)CC1
-- reply -1.35

-- ask Same again, this time with COc1ccccc1C(=O)Nc1cc2c(cc1N1CCNC[C@H]1C)n(C)c(=O)n2C
-- reply -0.6

-- ask Same again, this time with O=C(O)CNC(=O)c1ncc(-c2cccc(Cl)c2)cc1O
-- reply -0.0287

-- ask Same again, this time with C[C@]12CCCN1CC1=NNC(=O)c3cc(F)cc4[nH]c2c1c34
-- reply -0.827

-- ask Same again, this time with O=C(c1ccc(Nc2nc(C3CC3)cn3c(-c4cn[nH]c4)cnc23)c(F)c1)N1CCOCC1
-- reply 0.98

-- ask Same again, this time with Cc1cc2c(F)c(Oc3ncnn4cc(OC[C@@H](C)OC(=O)[C@H](C)N)c(C)c34)ccc2[nH]1
-- reply 1.46

-- ask Same again, this time with Nc1ncccc1-c1nc2ccc(-c3ccccc3)nc2n1-c1ccc(C2(N)CCC2)cc1
-- reply -0.599

-- ask Same again, this time with CN1CCN(CCCNc2ncc(Cl)c(-c3cc4c(C(=O)NC5CC5)cccc4s3)n2)CC1
-- reply -0.322

-- ask Same again, this time with Cc1noc(-c2ccc(-c3ccc(C4(C(=O)O)CC4)cc3)cc2)c1NC(=O)O[C@H](C)c1ccccc1
-- reply 1.39

-- ask Same again, this time with C[C@@H](OC[C@@]1(c2ccccc2)CC[C@]2(CCC(=O)N2)CN1)c1cc(C(F)(F)F)cc(C(F)(F)F)c1
-- reply -0.524

====

Tested on: CP217
Experiment: qHTS profiling for inhibitors of Plasmodium falciparum proliferation (AID 504749); further: nearly all actives have a fitted effect of over 60% in size
Details: P. falciparum in erythrocytes, SYBR Green DNA, 72 h; series mostly up to 12.8 µM
Records with an inconclusive call do not appear. Activity calls are given as the source filed them. The call rests on the fitted dose curve; in most records, active means well fitted inhibition curve with a large enough effect; inconclusive means small, poorly fitted or top-dose-only effect; inactive means flat fitted curve, though single readings scatter. Bridge positions count the residues as written; N and C are the ends. Square brackets hold non-standard residues; d marks the D form. Peptide text beside a SMILES is read from it. * marks the point of attachment. Ileψ(thiazoline)Cys = CC[C@H](C)[C@H](N)C1=N[C@H](C(=O)*)CS1; d(aIle) = CC[C@H](C)[C@@H](N)C(=O)O; dOrn = NCCC[C@@H](N)C(=O)O
Hi there, use one of these labels in your reply, thanks! 1 (yes) = active, 0 (no) = inactive

-- ask Entry CCOC(=O)O[C@]1(C(=O)COC(=O)CC)CC[C@@H]2[C@@H]3CCC4=CC(=O)C=C[C@@]4(C)[C@H]3[C@H](O)C[C@]21C : call = ?
-- reply 0 (no)

-- ask Same again, this time with OCC1OC([S-])[C@H](O)C(O)C1O.[Au+] (stereo partly specified)
-- reply 0 (no)

-- ask Same again, this time with CC(=O)N[C@@H]1C(O)OC(CO)C(O)C1O (stereo partly specified)
-- reply 0 (no)

-- ask Same again, this time with O=C(N/N=C\c1ccc([N+](=O)[O-])o1)c1ccc(O)cc1
-- reply 1 (yes)

-- ask Same again, this time with C[C@H]1CC[C@]2(OC1)O[C@@H]1C[C@@H]3[C@@H]4CC[C@H]5C[C@@H](O)CC[C@]5(C)[C@@H]4CC(=O)[C@@]3(C)[C@H]1[C@@H]2C
-- reply 0 (no)

-- ask Same again, this time with CC[C@H](C)[C@H](N)C1=N[C@H](C(=O)N[C@@H](CC(C)C)C(=O)N[C@@H](CCC(=O)O)C(=O)N[C@@H](C(=O)N[C@H]2CCCCNC(=O)[C@@H](CC(N)=O)NC(=O)[C@@H](CC(=O)O)NC(=O)[C@@H](Cc3cnc[nH]3)NC(=O)[C@@H](Cc3ccccc3)NC(=O)[C@@H]([C@@H](C)CC)NC(=O)[C@@H](CCCN)NC2=O)[C@@H](C)CC)CS1 ({Ileψ(thiazoline)Cys}-LE[d(aIle)]K[dOrn][d(aIle)][dF][dH][dD][dN]; lactam 4-C)
-- reply 0 (no)

-- ask Same again, this time with Cc1ccsc1/C=C\C1=NCCCN1C
-- reply 0 (no)

-- ask Same again, this time with NCC1CCC(N)C(O[C@@H]2C(O)[C@H](O[C@H]3OC(CO)C(O)C(N)C3O)[C@@H](N)C[C@H]2N)O1 (stereo partly specified)
-- reply 0 (no)

-- ask Same again, this time with CC(=O)OC1CCC2C3CCc4cc(O)ccc4C3CCC12C (stereo unspecified)
-- reply 0 (no)

-- ask Same again, this time with CC(C)C1CCC(C(=O)NC(Cc2ccccc2)C(=O)O)CC1 (stereo unspecified)
-- reply 0 (no)

-- ask Same again, this time with NS(=O)(=O)c1cc2c(cc1C(F)(F)F)N[C@H](Cc1ccccc1)NS2(=O)=O
-- reply 0 (no)

-- ask Same again, this time with C[C@@H]1C[C@H]2[C@@H]3C[C@H](F)C4=CC(=O)C=C[C@@]4(C)[C@]3(F)[C@H](O)C[C@]2(C)[C@@]1(O)C(=O)CO
-- reply 0 (no)

-- ask Same again, this time with O=C1OC(CO)C(O)C(O)C1O (stereo unspecified)
-- reply 0 (no)

-- ask Same again, this time with CNC1C(OC2C(O[C@@H]3C(O)C(O)[C@@H](N=C(N)N)C(O)C3N=C(N)N)OC(C)[C@@]2(O)CO)OC(CO)C(O)C1O (stereo partly specified)
-- reply 0 (no)

-- ask Same again, this time with CN1CCN([C@@H](c2ccccc2)c2ccc(Cl)cc2)CC1
-- reply 0 (no)

-- ask Same again, this time with CCc1c(C)[nH]c2c1C(=O)[C@H](CN1CCOCC1)CC2
-- reply 0 (no)

====

Test system: CP217
Test: qHTS profiling for inhibitors of Plasmodium falciparum proliferation (AID 504749); further: nearly all actives have a fitted effect of over 60% in size
Details: P. falciparum in erythrocytes, SYBR Green DNA, 72 h; series mostly up to 12.8 µM
Inconclusive results are not listed. The source made the active and inactive calls. Calls follow the shape of the dose curve; as a rule, active = well fitted inhibition curve with a large enough effect; inconclusive = small, poorly fitted or top-dose-only effect; inactive = flat fitted curve, though single readings scatter.
Hi there, use one of these labels in your reply, thanks! active, inactive

-- ask Entry COc1ccccc1OC[C@H](O)CO : call = ?
-- reply inactive

-- ask Same again, this time with C[C@@]12CC[C@H]3[C@@H](CCC4=CC(=O)CC[C@]43C)[C@H]1CC[C@H]2C(=O)CO
-- reply inactive

-- ask Same again, this time with COc1ccc(CC(N)C(=O)NC2C(CO)OC(n3cnc4c(N(C)C)ncnc43)C2O)cc1 (stereo not given)
-- reply active

-- ask Same again, this time with CC[C@H](Cc1c(I)cc(I)c(N)c1I)C(=O)O
-- reply inactive

-- ask Same again, this time with Cc1onc(-c2ccccc2Cl)c1C(=O)N[C@H]1C(=O)N2[C@H]1SC(C)(C)[C@H]2C(=O)O
-- reply inactive

====

Target: Cytochrome P450 2D6 (Homo sapiens) (UniProt P10635)
Sequence (P10635 whole entry, looked up): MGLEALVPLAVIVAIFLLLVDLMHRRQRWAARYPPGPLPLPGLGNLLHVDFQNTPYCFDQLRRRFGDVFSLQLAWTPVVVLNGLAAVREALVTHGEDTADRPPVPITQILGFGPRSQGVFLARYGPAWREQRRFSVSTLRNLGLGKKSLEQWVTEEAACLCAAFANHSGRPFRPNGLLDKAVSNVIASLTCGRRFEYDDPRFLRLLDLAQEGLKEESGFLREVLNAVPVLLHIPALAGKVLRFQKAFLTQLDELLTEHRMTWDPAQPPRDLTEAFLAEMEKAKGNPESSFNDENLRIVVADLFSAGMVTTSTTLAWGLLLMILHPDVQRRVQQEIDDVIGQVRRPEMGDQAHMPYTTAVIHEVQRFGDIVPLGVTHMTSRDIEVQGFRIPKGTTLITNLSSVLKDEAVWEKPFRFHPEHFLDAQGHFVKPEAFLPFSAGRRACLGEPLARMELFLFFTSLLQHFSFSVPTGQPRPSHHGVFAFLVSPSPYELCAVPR
Assay: Cytochrome P450 family 2 subfamily D member 6 (CYP2D6) small molecule antagonists: luciferase biochemical (cell-free) qHTS assay (AID 1645840); further: nearly all actives have a fitted effect of over 55% in size
Details: P450-Glo CYP2D6 enzyme, luciferin luminescence, 1 h; series mostly up to 57.4 µM
Inconclusive results are not listed. Activity calls are given as the source filed them. The call rests on the fitted dose curve; in most records, active means well fitted inhibition curve with a large enough effect in the repeat runs; inconclusive means weak or mixed curves; inactive means flat fitted curve, though single readings scatter.
Hi there, use one of these labels in your reply, thanks! true (1) (active), false (0) (inactive)

-- ask Entry Cc1ccc(CNC(=O)C(C)n2nc(C)c3sc4ccccc4c3c2=O)cc1 (stereo not drawn) : call = ?
-- reply true (1)

-- ask Same again, this time with COc1ccc(CC2c3cc(OC)c(OC)cc3CCN2CCC(=O)OCCCCCOC(=O)CCN2CCc3cc(OC)c(OC)cc3C2Cc2ccc(OC)c(OC)c2)cc1OC (stereo not drawn)
-- reply false (0)

-- ask Same again, this time with CCOc1ccccc1NC(=O)Cn1c(=O)n(CCC(=O)NCc2ccc3c(c2)OCO3)c(=O)c2ccccc21
-- reply true (1)

-- ask Same again, this time with Cc1[nH]n2c(=O)cc(-c3ccccc3Cl)nc2c1-c1ccccc1
-- reply true (1)

-- ask Same again, this time with CCc1cccc(CC)c1-n1c(CC(C)C)c(C(=O)N2CCNCC2)cc(-c2nc(-c3ccc(Cl)cc3)cs2)c1=O
-- reply true (1)

-- ask Same again, this time with CC1=C(C(=O)NCc2cncn2C)C(c2ccccc2Cl)N=C(Nc2nc3ccccc3o2)N1 (stereo not drawn)
-- reply true (1)

-- ask Same again, this time with COc1ccc(CCNc2nc(SCc3cccc(F)c3)nc3ccccc23)cc1OC
-- reply true (1)

-- ask Same again, this time with Clc1cccc(-n2ncc3c(NCCCn4ccnc4)ncnc32)c1
-- reply true (1)

-- ask Same again, this time with NS(=O)(=O)c1ccc(Cc2c(-c3cccc(-c4ccccc4)c3)nn(-c3nc(C(=O)O)cs3)c2C2CC2)cc1
-- reply true (1)

-- ask Same again, this time with Cc1cccn2c(=O)cc(CSc3nnc(NC(=O)COc4ccccc4)s3)nc12
-- reply false (0)

-- ask Same again, this time with CC1=C(C(=O)Nc2cccc(-c3cn[nH]c3)c2)C(c2ccccc2Cl)N=C(Nc2nc3ccccc3o2)N1 (stereo not drawn)
-- reply true (1)

-- ask Same again, this time with COc1ccc(C(C#N)C(C)C)cc1OC (stereo not drawn)
-- reply false (0)

-- ask Same again, this time with c1ccc(Cn2c(-c3ccc(OC[C@H](C4CCNCC4)n4c(-c5ccccc5)nc5ccccc54)cc3)nc3ccccc32)cc1
-- reply true (1)

-- ask Same again, this time with COC(=O)c1ccc(C2C=C(c3ccc(Cl)cc3)Nc3nc4ccccc4n32)cc1 (stereo not drawn)
-- reply true (1)

-- ask Same again, this time with C[S+](=O)([O-])Nc1ccc(-c2ccc3nc(-c4cccc(OC(F)(F)F)c4)[nH]c3c2)cc1
-- reply false (0)

-- ask Same again, this time with COC(=O)c1c(SCC(=O)Nc2cc(C)cc(C)c2)[nH]c2ccccc2c1=O
-- reply false (0)

-- ask Same again, this time with CCOc1ccccc1NC(=O)Nc1nnc(N2CCCC(C)C2)s1 (stereo not drawn)
-- reply false (0)

-- ask Same again, this time with COc1ccc(-n2nc3c(N4CCCC(C(=O)NCc5ccccc5C)C4)nnc(C)c3c2C)cc1 (stereo not drawn)
-- reply true (1)

-- ask Same again, this time with CCOC(=O)C1=C(O)c2ccccc2S(=O)(=O)N1C
-- reply false (0)

-- ask Same again, this time with COc1ccc(CCNc2nc(SCc3ccccc3Cl)nc3ccccc23)cc1OC
-- reply true (1)

-- ask Same again, this time with COc1ccc(NC(=O)C2CCCN(c3nnc(C)c4c(C)n(-c5ccccc5)nc34)C2)cc1Cl (stereo not drawn)
-- reply true (1)

-- ask Same again, this time with COc1cc(C(=O)NC(c2ccccc2Cl)c2cc(Cl)c3cccnc3c2O)cc(OC)c1OC (stereo not drawn)
-- reply false (0)

-- ask Same again, this time with CN(C)S(=O)(=O)c1ccc(S(=O)(=O)N(Cc2ccccc2Cl)C[C@@H]2CCCO2)cc1
-- reply false (0)

-- ask Same again, this time with CC(=O)Nc1ccc(C)cc1-c1nc2ccccc2n(CC(=O)Nc2cc(Cl)ccc2C)c1=O
-- reply true (1)

-- ask Same again, this time with CCOC(=O)c1sc(NC(=O)c2c(-c3ccccc3)c(-c3ccccc3)nn(C)c2=O)nc1C
-- reply false (0)

-- ask Same again, this time with COc1cccc(CNCc2cccn2-c2nnc(N3CCN(c4ccccc4)CC3)s2)c1
-- reply true (1)

-- ask Same again, this time with CCc1ccc(C2=CC(c3cccc(C)c3)n3c(nc4ccccc43)N2)cc1 (stereo not drawn)
-- reply true (1)

-- ask Same again, this time with Cc1nnc(N2CCC(C(=O)NCCc3ccccc3Cl)CC2)c2nn(-c3ccccc3)c(C)c12
-- reply true (1)

-- ask Same again, this time with CCCCC1CCC(CCCC(C)CCC(=O)O)CC1 (stereo not drawn)
-- reply false (0)

-- ask Same again, this time with Cc1ccc(C)c(NC(=O)C2CCN(S(=O)(=O)c3c(C)noc3/C=C/c3cccs3)CC2)c1
-- reply true (1)

-- ask Same again, this time with CCc1ccc(-c2nc(CSCC(=O)NCc3ccc(C)cc3)c(C)o2)cc1
-- reply true (1)

-- ask Same again, this time with NCCOCCOCCOCCOCCN1CCN(C(c2ccc(Cl)cc2)c2ccc(Cl)cc2)CC1
-- reply true (1)

-- ask Same again, this time with CCN1CCN(CCCNC(=O)c2cc3c(s2)-c2c(C)cccc2OC3)CC1
-- reply true (1)

-- ask Same again, this time with Cc1ncc(Cl)cc1NCc1ccc(C(=O)N[C@@H](CC2CCCC2)C(=O)NC2CC2)s1
-- reply true (1)

-- ask Same again, this time with Cc1cccc(C)c1NC(=O)Cn1cc(C(=O)c2ccco2)c2ccccc21
-- reply true (1)

-- ask Same again, this time with O=C(CSc1nc(-c2ccc(F)cc2)[nH]c1-c1ccc(F)cc1)Nc1ccc2c(c1)OCO2
-- reply true (1)

-- ask Same again, this time with Cc1cc(Cl)ccc1NC(=O)Cn1nc(C)c2c(C)n(-c3ccccc3)nc2c1=O
-- reply false (0)

-- ask Same again, this time with CCc1ccc(OCCn2c(C3CC(=O)N(Cc4ccc(F)cc4)C3)nc3ccccc32)cc1 (stereo not drawn)
-- reply true (1)
